Where these numbers come from: patent US9637451B2

ASSAYED SYSTEM: human MT2 receptor (Homo sapiens)
Construct: expressed in transfected cells
Sequence (P49286 whole entry): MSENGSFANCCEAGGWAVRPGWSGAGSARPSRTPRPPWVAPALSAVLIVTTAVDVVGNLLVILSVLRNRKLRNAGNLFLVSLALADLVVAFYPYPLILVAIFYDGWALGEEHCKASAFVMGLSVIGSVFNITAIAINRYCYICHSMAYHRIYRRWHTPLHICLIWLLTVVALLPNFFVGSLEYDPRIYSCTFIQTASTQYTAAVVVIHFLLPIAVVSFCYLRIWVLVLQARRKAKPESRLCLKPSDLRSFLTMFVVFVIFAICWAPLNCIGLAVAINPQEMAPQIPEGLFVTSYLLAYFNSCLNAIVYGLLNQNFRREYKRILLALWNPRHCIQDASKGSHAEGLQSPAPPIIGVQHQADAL
ASSAY NAME: Activation of human MT2 receptor in receptor-expressing cells, intracellular Ca2+ by FLIPR
Assay type: cell-based
TEST PARAMETERS: maximum reaction by ramelteon taken as 100%
Kindly supply the reported Emax values for the records listed here.
Entry rule: numbers only, all in %.

## Input State Emax on human MT2 receptor (Homo sapiens). Entry: CC(=O)NCCc1c[nH]c2ccc(OCCn3ccc(C(F)(F)F)n3)cc12 [Example 4]
## Output 102

## Input Report value: Emax, system: human MT2 receptor (Homo sapiens), compound: CC(=O)NCCc1c(C)[nH]c2ccc(OCCn3ccc(C)n3)cc12 [Example 29]
## Output 112

## Input State Emax (human MT2 receptor (Homo sapiens)) of Cn1ccc(OCCOc2cc3c(CCNC(=O)C(F)F)c[nH]c3cc2F)n1 [Example 44] .
## Output 102

## Input Find Emax for COc1ccc(OCCOc2cc3c(CCNC(C)=O)c[nH]c3cc2F)cn1 [Example 28] on human MT2 receptor (Homo sapiens) and write it down.
## Output 62

## Input Tell me Emax of CC(=O)NCCc1c(C)[nH]c2cc(F)c(OCCn3ccc(C)n3)cc12 [Example 22] when tested on human MT2 receptor (Homo sapiens).
## Output 95

## Input Report measured Emax on human MT2 receptor (Homo sapiens); entry: CC(=O)NCCc1c[nH]c2cc(F)c(OCCOc3ccn(C)n3)cc12 [Example 6]
## Output 119

## Input Lab note: human MT2 receptor (Homo sapiens) assay, enter Emax for COC(=O)NCCOc1cc2c(CCNC(C)=O)c(C)[nH]c2cc1F [Example 19] here
## Output 91

## Input State the measured Emax (human MT2 receptor (Homo sapiens)) of CNC(=O)NCCc1c(C)[nH]c2ccc(OCCOc3ccc(OC)nc3)cc12 [Example 31]
## Output 88

## Input Give reported Emax for CNC(=O)NCCc1c[nH]c2ccc(OCCOc3cccc(C)n3)cc12 [Example 58] (human MT2 receptor (Homo sapiens))
## Output 99

## Input State Emax on human MT2 receptor (Homo sapiens). Entry: CC(=O)NCCc1c(C)[nH]c2ccc(OCCOc3ccn(C)n3)cc12 [Example 7]
## Output 125

## Input Please indicate recorded Emax of CNC(=O)NCCc1c[nH]c2ccc(OCCOc3cncc(Br)c3)cc12 [Example 50] measured with human MT2 receptor (Homo sapiens).
## Output 111

## Input Please respond with reported Emax (system human MT2 receptor (Homo sapiens)) for CCc1ccn(CCOc2cc3c(CCNC(C)=O)c[nH]c3cc2F)n1 [Example 27] .
## Output 82

## Input Report its Emax with human MT2 receptor (Homo sapiens) as the test system: CCC(=O)NCCc1c[nH]c2ccc(OCCOc3ccn(C)n3)cc12 [Example 8]
## Output 107

## Input State, for human MT2 receptor (Homo sapiens), measured Emax of the compound listed here: CCC(=O)NCCc1c(C)[nH]c2cc(F)c(OCCOc3ccn(C)n3)cc12 [Example 45]
## Output 127

## Input State recorded Emax with human MT2 receptor (Homo sapiens), entry CC(=O)NC[C@H](C)c1c[nH]c2cc(Cl)c(OCCOc3ccn(C)n3)cc12 [Example 38] , no comment.
## Output 105

## Input Please report Emax with human MT2 receptor (Homo sapiens) for item Cn1ccc(OCCOc2ccc3[nH]cc(CCNC(=O)C(F)F)c3c2)n1 [Example 42] .
## Output 103
